For each record, write down the corresponding %-inhibition of FRK.
molecular target: panel of more than 300 wild-type and mutant kinases (313 kinase panel) (Homo sapiens); test: Kinase profiling in a biochemical assay panel (mobility shift assays and ELISA), %-inhibition at 1 μM; selectivity entropy; settings: kinase FRK; compound at 1 μM
Sequence (P42685 whole entry, change not shown): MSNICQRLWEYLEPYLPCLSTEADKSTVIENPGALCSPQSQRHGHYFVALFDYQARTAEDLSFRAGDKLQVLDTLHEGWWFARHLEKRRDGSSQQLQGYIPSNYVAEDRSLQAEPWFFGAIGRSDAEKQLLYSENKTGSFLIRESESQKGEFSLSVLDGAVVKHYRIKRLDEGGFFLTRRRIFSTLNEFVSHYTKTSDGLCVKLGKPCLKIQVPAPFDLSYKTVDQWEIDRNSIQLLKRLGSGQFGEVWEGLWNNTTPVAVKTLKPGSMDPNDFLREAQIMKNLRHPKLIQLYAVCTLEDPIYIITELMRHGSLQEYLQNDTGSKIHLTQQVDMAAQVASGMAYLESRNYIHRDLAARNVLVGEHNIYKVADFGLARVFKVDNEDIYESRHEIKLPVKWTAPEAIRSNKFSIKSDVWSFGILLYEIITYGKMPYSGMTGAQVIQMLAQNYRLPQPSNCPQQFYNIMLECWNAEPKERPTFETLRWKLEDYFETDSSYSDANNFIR
Only the number, expressed in %, is required.

Sample CC(C)(C)c1nc(-c2cccc(NS(=O)(=O)c3c(F)cccc3F)c2F)c(-c2ccnc(N)n2)s1 — what was its %-inhibition of FRK?
81

Sample CS(=O)(=O)CCNCc1ccc(-c2ccc3ncnc(Nc4ccc(OCc5cccc(F)c5)c(Cl)c4)c3c2)o1 — what was its %-inhibition of FRK?
0.586

Sample O=S(=O)(c1cccc2cnccc12)N1CCCNCC1 — what was its %-inhibition of FRK?
-3

Sample Cc1ccc(C(=O)Nc2ccc(CN3CCN(C)CC3)c(C(F)(F)F)c2)cc1C#Cc1cnc2cccnn12 — what was its %-inhibition of FRK?
100

Sample CCCS(=O)(=O)Nc1ccc(F)c(C(=O)c2c[nH]c3ncc(-c4ccc(Cl)cc4)cc23)c1F — what was its %-inhibition of FRK?
62

Sample CO[C@H]1C[C@@H]2CC[C@@H](C)[C@@](O)(O2)C(=O)C(=O)N2CCCC[C@H]2C(=O)O[C@H]([C@H](C)C[C@@H]2CC[C@@H](OC(=O)C(C)(CO)CO)[C@H](OC)C2)CC(=O)[C@H](C)/C=C(\C)[C@@H](O)[C@@H](OC)C(=O)[C@H](C)C[C@H](C)/C=C/C=C/C=C/1C — what was its %-inhibition of FRK?
-11
